molecular target: PI3Kα (p110α/p85α) (Homo sapiens, UniProt P42336); assay: HTRF assay, potency against active PI3Kα; conditions: HTRF; [ATP]=50 μM, [di-C8-PIP2]=10 μM; 30 min pre-incubation; read-out: PI3Kα Inhibition
Sequence (P42336 whole entry): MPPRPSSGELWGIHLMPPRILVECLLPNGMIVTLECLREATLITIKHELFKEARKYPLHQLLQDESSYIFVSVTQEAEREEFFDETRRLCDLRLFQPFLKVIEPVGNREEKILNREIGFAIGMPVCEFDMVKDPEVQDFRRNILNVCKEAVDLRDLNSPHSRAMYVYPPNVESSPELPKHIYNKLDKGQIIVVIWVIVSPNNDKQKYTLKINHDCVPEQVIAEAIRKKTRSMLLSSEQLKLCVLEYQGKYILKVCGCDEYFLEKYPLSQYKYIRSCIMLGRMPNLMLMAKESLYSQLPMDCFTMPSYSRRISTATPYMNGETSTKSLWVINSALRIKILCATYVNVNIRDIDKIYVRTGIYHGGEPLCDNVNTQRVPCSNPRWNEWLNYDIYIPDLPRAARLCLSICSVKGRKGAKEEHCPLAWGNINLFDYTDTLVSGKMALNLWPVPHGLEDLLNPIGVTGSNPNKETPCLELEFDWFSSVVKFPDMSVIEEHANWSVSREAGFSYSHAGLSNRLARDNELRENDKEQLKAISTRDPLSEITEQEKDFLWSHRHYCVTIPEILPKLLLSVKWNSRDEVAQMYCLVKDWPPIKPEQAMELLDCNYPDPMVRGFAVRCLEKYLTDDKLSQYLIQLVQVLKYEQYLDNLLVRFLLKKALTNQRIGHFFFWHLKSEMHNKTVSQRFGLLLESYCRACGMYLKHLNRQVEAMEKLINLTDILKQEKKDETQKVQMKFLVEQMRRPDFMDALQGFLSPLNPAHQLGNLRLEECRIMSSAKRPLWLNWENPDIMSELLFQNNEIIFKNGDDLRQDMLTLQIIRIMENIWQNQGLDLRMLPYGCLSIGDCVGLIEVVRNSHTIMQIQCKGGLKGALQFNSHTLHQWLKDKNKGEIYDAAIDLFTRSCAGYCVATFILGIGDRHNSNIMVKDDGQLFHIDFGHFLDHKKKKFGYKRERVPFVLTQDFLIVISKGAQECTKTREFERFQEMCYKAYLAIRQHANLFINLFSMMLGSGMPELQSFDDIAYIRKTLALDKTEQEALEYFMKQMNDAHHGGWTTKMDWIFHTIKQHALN
Sequence (P27986 whole entry partner): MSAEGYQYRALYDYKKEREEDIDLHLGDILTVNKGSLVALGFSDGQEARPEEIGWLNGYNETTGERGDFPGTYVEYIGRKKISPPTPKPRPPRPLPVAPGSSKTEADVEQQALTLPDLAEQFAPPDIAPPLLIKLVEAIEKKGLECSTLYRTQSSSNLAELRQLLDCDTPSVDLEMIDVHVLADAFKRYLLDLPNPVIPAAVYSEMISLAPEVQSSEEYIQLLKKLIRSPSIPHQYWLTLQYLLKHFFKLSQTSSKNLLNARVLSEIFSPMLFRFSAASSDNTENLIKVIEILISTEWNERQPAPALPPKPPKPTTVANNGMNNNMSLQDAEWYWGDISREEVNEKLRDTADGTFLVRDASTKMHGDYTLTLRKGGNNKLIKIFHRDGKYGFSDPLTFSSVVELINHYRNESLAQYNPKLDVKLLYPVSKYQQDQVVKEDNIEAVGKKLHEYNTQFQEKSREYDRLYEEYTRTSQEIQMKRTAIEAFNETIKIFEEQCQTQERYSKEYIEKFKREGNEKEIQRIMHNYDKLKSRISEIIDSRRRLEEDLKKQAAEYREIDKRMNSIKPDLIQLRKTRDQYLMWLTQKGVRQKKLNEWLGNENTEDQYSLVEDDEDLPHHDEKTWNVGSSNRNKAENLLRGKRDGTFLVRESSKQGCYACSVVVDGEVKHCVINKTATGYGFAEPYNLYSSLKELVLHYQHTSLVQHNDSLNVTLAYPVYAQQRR
readout: IC50

Which measured IC50 value corresponds to "C=CC(=O)Nc1ccc(CCNC(=O)c2cc(-c3cnc(N)nc3C)nc(N3CCOCC3)c2)cc1" ?
100 to 1000 nM

Same read-out for "C/C=C/C(=O)CCC(=O)N1Cc2ccc(-c3cc4nc(-c5cccc(O)c5)nc(N5CCOCC5)c4s3)cc2C1" ?
< 10 nM

Same read-out for "C=CC(=O)Nc1ccc(CCNC(=O)c2cc(-c3cccc4[nH]ncc34)nc(N3CCOCC3)c2)cc1" ?
> 1000 nM

Same read-out for "COc1ccc(-c2nn(C3CCN(C(=O)CCC(=O)/C=C/c4ccccc4)CC3)c3ncnc(N)c23)cc1OC" ?
100 to 1000 nM

Same read-out for "O=C(/C=C/c1ccccn1)CCC(=O)NCC12CCC(c3cc4nc(-c5cccc6[nH]ncc56)nc(N5CCOCC5)c4s3)(CC1)OC2" ?
> 1000 nM

Same read-out for "C=CC(=O)NCCS(=O)(=O)N1CCN(Cc2cc3nc(-c4cccc(O)c4)nc(N4CCOCC4)c3s2)CC1" ?
10 to 100 nM
